B1: TPR 5TU (parent)
chain: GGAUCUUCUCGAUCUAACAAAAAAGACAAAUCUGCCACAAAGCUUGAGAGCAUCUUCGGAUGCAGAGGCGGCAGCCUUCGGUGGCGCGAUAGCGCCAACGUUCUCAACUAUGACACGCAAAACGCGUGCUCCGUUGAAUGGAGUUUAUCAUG

variants of: B1; test: polymerase ribozyme fitness, log enrichment relative to wild type (log ratio); higher = more active; in vitro selection for triplet polymerase activity
Fewer inactive variants are shown than the library holds.
The variants listed here are annotated with their polymerase ribozyme fitness (log ratio).

These solved cases illustrate the format of a correct answer.
According to the records, this variant G50A G94C C95G U144C displays polymerase ribozyme fitness (log ratio) of ≤ -4.2

According to the records, this variant A19C A39U G84C C93A U148A displays polymerase ribozyme fitness (log ratio) of ≤ -4.2

According to the records, this variant G46C A52G C63A G71A A110G A113U displays polymerase ribozyme fitness (log ratio) of ≤ -4.2

According to the records, this variant C18U C54A A64G G83C A119U A147C displays polymerase ribozyme fitness (log ratio) of ≤ -4.2

According to the records, this variant U31A G59A G84A U102G G128C A142C displays polymerase ribozyme fitness (log ratio) of ≤ -4.2

According to the records, this variant G58C G80C C95U displays polymerase ribozyme fitness (log ratio) of ≤ -4.2

***
According to the records, this variant G70C G86A C114U A115G G143U A150C displays polymerase ribozyme fitness (log ratio) of ≤ -4.2

According to the records, this variant C57A A64C C85A C95U U130A A147U displays polymerase ribozyme fitness (log ratio) of ≤ -4.2

According to the records, this variant C18U U53A C54U U56A G70A C85U C116U G141C displays polymerase ribozyme fitness (log ratio) of ≤ -4.2

According to the records, this variant U4A C36A G48C G86A displays polymerase ribozyme fitness (log ratio) of ≤ -4.2

According to the records, this variant U45A C76U A98U G100C U101G A106U displays polymerase ribozyme fitness (log ratio) of -4

According to the records, this variant C14A A19C C93U C125A displays polymerase ribozyme fitness (log ratio) of -3.52

According to the records, this variant G83A U151A displays polymerase ribozyme fitness (log ratio) of -3.69

According to the records, this variant C51G U56A A89U A119C C129U displays polymerase ribozyme fitness (log ratio) of ≤ -4.2

According to the records, this variant C116U A119G displays polymerase ribozyme fitness (log ratio) of -0.704

According to the records, this variant A21C G68C A142G displays polymerase ribozyme fitness (log ratio) of -4.13

According to the records, this variant A20C U56A A107U displays polymerase ribozyme fitness (log ratio) of -2.71
